This listing pairs compounds with measured IC50.
Molecular target: human TRPA1 (Homo sapiens (Human))
Sequence (O75762 whole entry): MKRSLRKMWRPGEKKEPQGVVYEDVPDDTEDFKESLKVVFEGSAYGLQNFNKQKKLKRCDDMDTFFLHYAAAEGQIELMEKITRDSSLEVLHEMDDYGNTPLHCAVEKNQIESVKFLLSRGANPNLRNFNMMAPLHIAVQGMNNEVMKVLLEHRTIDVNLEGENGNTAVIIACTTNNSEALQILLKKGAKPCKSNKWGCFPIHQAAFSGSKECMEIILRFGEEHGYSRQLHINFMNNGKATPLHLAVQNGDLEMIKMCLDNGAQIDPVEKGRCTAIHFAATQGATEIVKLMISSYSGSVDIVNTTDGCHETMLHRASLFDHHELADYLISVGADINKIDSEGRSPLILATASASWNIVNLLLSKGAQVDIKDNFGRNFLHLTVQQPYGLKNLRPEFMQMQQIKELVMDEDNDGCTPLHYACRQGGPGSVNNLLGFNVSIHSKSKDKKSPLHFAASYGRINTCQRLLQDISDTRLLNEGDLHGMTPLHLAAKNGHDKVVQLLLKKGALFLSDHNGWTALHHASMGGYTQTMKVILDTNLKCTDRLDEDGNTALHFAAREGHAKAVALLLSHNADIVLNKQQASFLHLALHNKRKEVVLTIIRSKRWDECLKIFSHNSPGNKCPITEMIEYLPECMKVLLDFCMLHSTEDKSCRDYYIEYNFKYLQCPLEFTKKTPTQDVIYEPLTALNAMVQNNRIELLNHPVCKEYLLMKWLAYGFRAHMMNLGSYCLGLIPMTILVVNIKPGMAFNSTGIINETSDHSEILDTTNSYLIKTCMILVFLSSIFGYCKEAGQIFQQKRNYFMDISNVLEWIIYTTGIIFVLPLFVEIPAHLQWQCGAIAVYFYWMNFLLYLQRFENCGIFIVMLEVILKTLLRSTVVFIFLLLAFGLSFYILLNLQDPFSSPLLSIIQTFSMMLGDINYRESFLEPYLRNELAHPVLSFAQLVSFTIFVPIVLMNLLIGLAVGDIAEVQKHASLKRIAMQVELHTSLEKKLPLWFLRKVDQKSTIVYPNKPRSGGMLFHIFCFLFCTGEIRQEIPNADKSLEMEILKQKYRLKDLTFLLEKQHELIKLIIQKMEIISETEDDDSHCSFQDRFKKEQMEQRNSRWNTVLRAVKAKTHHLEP
Assay: In vitro inhibition of human TRPA1, whole cell patch configuration
Settings: current activation 10 μM AITC, tested concentrations 320 pM to 3.2 μM, read-out: hTRPA1 IC50
Your answer should be a plain number; it is taken to be in nM.

These recorded examples may help you get a feel for the data.
{"Compound": "CC(=O)Cn1c(=O)c2c(ncn2[C@@H](C)C(=O)Nc2cncc(-c3cnc(C(F)(F)F)nc3)n2)n(C)c1=O", "Assay endpoint": "IC50", "Recorded measurement": 39}
{"Compound": "C[C@@H](C(=O)Nc1csc(-c2cnc(N3CCC[C@H]3C(F)(F)F)nc2)n1)n1cnc2c1c(=O)n(CC#N)c(=O)n2C", "Assay endpoint": "IC50", "Recorded measurement": 1}
{"Compound": "CCC(=O)Cn1c(=O)c2c(ncn2CC(=O)Nc2cncc(-c3cnc(C(F)(F)F)c(C)c3)n2)n(C)c1=O", "Assay endpoint": "IC50", "Recorded measurement": 10}
{"Compound": "Cc1noc(Cn2c(=O)c3c(ncn3[C@@H](C)C(=O)Nc3csc(-c4cnc(C)c(C(F)(F)F)c4)n3)n(C)c2=O)n1", "Assay endpoint": "IC50", "Recorded measurement": 1}
{"Compound": "Cn1c(=O)n(Cc2ccccn2)c(=O)c2c1ncn2CC(=O)Nc1cccc(-c2ccc(F)c(F)c2)n1", "Assay endpoint": "IC50", "Recorded measurement": 74}

Lab book: IC50 of Cc1cc(Cn2c(=O)c3c(ncn3CC(=O)Nc3cccc(N4CC(F)(F)C4)n3)n(C)c2=O)no1 noted as 294

Lab book: IC50 of CC#CCn1c(=O)c2c(ncn2[C@@H](C)C(=O)Nc2csc(-c3cnc(N4CC5C(C4)C5(F)F)nc3)n2)n(C)c1=O (stereo partly shown) noted as 2
